Test: Microsomal stability assay, human liver microsomes
Settings: both, human, pooled liver microsomes, pH 7.4, Microsomal stability assays: Half-life
measured_metric: half-life at 0.08 µM (min)

CC(Cc1ccc(NC=O)cc1)NCCCc1ccccc1 (stereo not drawn) :: 114
FCC(Cc1ccc(F)cc1)NCCCc1ccncc1 (stereo not drawn) :: 30
CC(Cc1ccc(-c2cncnc2)cc1)NCCCc1ccc(F)cc1 (stereo not drawn) :: 30
CC(Cc1ccc(NC=O)cc1)NCCCc1ccc(F)cc1 (stereo not drawn) :: 96
CC(Cc1ccc(F)cc1)NCCCc1ccnc2ccccc12 (stereo not drawn) :: 12
CC(Cc1ccc(F)cc1)NCCCc1c[nH]c2ccccc12 (stereo not drawn) :: 12
CC(Cc1ccc(Cl)cc1)NCCCc1ccc(N)cc1 (stereo not drawn) :: 108
FCC(Cc1ccc(F)cc1)NCCCc1ccc(F)cc1 (stereo not drawn) :: 60
OCC(Cc1ccc(F)cc1)NCCCn1cccn1 (stereo not drawn) :: 36
FCC(Cc1ccc(Br)cc1)NCCCc1ccc(F)cc1 (stereo not drawn) :: 66
O=CNc1ccc(CC(CF)NCCCc2ccc(F)cc2)cc1 (stereo not drawn) :: 48
FCC(Cc1ccccc1)NCCCc1ccc(F)cc1 (stereo not drawn) :: 36
